system: 409B2 hiPSC (iCRISPR Cas9, FRMD7 editing); test: NHEJ-attributed indel frequency relative to solvent control (fold (ratio to mock)); higher = more NHEJ outcomes; conditions: 20 nM
Listed molecules paired with reported NHEJ-attributed indel frequency
When you answer, write just the number.

Solved cases (4 shown):
NC(=O)CC[C@@H](N)C(=O)O [D-Glutamine] (in H2O): 1.02
OC[C@H]1O[C@@H](c2ccc(F)c(Cc3cc4ccccc4s3)c2)[C@H](O)[C@@H](O)[C@@H]1O [Ipragliflozin] (in DMSO): 1
CC(=O)O[C@]1(C(C)=O)CC[C@H]2[C@@H]3C=C(C)C4=CC(=O)CC[C@]4(C)[C@H]3CC[C@@]21C [Megestrol Acetate] (in EtOH): 0.999
CC(C)(c1ccc(O)cc1)c1ccc(O)cc1 [Bisphenol A] (in DMSO): 1

Supply NHEJ-attributed indel frequency measured with 409B2 hiPSC (iCRISPR Cas9, FRMD7 editing) for C1CCN2C[C@@H]3C[C@@H](CN4CCCC[C@@H]34)[C@H]2C1 [Sparteine] (in DMSO) .
0.984

Supply NHEJ-attributed indel frequency measured with 409B2 hiPSC (iCRISPR Cas9, FRMD7 editing) for CSCCC(N)C(=O)O (racemic) [DL-Methionine] (in H2O) .
1.01

Supply NHEJ-attributed indel frequency measured with 409B2 hiPSC (iCRISPR Cas9, FRMD7 editing) for CO[C@@H]1[C@H](OC(=O)/C=C/C=C/C=C/C=C/C(=O)O)CC[C@]2(CO2)[C@H]1[C@@]1(C)O[C@@H]1CC=C(C)C [Fumagillin] (in DMSO) .
0.883

The measurements presented in this section are drawn from the supplement of paper PMC12698765.
